assay target: T1, PUF4 RNA-binding domain (Saccharomyces cerevisiae, UniProt P25339 537-888)
T1 sequence: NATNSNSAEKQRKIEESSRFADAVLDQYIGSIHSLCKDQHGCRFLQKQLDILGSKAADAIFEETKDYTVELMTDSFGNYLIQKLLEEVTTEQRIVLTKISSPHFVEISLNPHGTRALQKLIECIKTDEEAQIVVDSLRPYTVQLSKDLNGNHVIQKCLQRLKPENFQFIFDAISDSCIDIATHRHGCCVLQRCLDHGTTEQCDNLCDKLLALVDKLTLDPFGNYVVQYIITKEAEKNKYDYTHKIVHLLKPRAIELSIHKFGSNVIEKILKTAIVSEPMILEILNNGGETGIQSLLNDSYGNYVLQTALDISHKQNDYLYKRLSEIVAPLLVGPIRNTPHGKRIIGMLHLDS
assay comment: Mg; RNA-MaP; 20 mM Na-HEPES pH 7.4, 30 mM KOAc, 0.75 mM MgCl2, 0.1% Tween-20, 5% glycerol, 0.1 mg/mL BSA, 2 mM DTT; 25 C; 0.0125-409.6 nM protein
condition: tags: N-His6-TEV cleaved; C-SNAP kept, Cy3B-labelled; label: tethered on chip by stalled RNA polymerase
attribute measured: log10 of Kd (log10 of the value in nM)
// do not treat as linear: log10 of Kd, unit nM

binder	log10 of Kd
UCUCUUACUGUAUAUAAAUCUCUU (ssRNA) [Id_ii_S1_P3E.2_K3.1_C3.2_[C-2A]_[T-1C]_H3.1_A3.1_F3.1_T3.2_[T9A]]	1.21

Incoming: Give its log10 of Kd value. Item: UCUCUUUGUAGCUUCUCUCUU (ssRNA) [Ic_S1_P4E.1_K4.1_C4.1_H4.1_A4.1_[T5G]_[A6C]_F4.1_[A9C]_T4.1]
Outgoing: 2.79

Incoming: Give its log10 of Kd value. Item: UCUCUUUGUAUGACUCUCUU (ssRNA) [Ic_S1_P3E.1_K3.1_C3.1_H3.1_A3.1_[A6G]_F3.1_[T7A]_[A8C]_T3.1]
Outgoing: 3.03

Incoming: Give its log10 of Kd value. Item: Id_ii_S4_P5E.2_K5.1_C5.2_[C-2G]_H5.1_A5.1_F5.1_T5.2_[A12T] (ssRNA) RNA: UUUGACAACUGAUCGUUCUUUCUGUUGUAUUAUUAUUUUCUUUCUCGAUCAGUUGUCUUU
Outgoing: 0.28

Incoming: Give its log10 of Kd value. Item: UCUCUUUGUAAAUGUCUCUU (ssRNA) [Ic_S1_P3E.1_K3.1_C3.1_H3.1_A3.1_[T5A]_F3.1_[A8G]_T3.1]
Outgoing: 1.99

Sourced from paper PMC9352680
